Data origin: ChEMBL document CHEMBL1201862

# Test system: MOLT-4
# assay-method-text: NCI tumour cell line growth inhibition, 48 h
The source made the active and inactive calls. No stated cut-off is given here; in the data, active = GI50 up to about 1.1 µM and inactive = higher.
outcome-measure: GI50

[
  {
    "molecule": "Cc1c(C)c(C)c(CC2(C)CSC2)c(CC2(C)CSC2)c1C",
    "reported-measurement": "> 100 µM (inactive)"
  },
  {
    "molecule": "Cc1cc(C(=C2C=CC(=[N+](C)C)C=C2)c2ccc([N+](C)(C)C)cc2)ccc1N(C)C",
    "reported-measurement": "4.28 µM (inactive)"
  },
  {
    "molecule": "Cc1ccc(NC(=O)C2C3C=CC(O3)C2C(=O)O)cc1 (stereo unspecified)",
    "reported-measurement": "> 100 µM (inactive)"
  },
  {
    "molecule": "CCOc1ncn(-c2ccc(NC(=S)Nc3ncccn3)cc2)n1",
    "reported-measurement": "20.1 µM (inactive)"
  },
  {
    "molecule": "CCCCSC1=N/C(=C\\c2ccc(N(C)C)cc2)C(Cl)=N1",
    "reported-measurement": "> 100 µM (inactive)"
  },
  {
    "molecule": "O=C1/C(=C\\c2cccc(Oc3ccccc3)c2)S(=O)(=O)C(c2ccccc2)N1c1ccccc1Cl (stereo unspecified)",
    "reported-measurement": "15.1 µM (inactive)"
  }
]
